Molecular target: human NaV1.8 (Homo sapiens)
Sequence (Q9Y5Y9 whole entry): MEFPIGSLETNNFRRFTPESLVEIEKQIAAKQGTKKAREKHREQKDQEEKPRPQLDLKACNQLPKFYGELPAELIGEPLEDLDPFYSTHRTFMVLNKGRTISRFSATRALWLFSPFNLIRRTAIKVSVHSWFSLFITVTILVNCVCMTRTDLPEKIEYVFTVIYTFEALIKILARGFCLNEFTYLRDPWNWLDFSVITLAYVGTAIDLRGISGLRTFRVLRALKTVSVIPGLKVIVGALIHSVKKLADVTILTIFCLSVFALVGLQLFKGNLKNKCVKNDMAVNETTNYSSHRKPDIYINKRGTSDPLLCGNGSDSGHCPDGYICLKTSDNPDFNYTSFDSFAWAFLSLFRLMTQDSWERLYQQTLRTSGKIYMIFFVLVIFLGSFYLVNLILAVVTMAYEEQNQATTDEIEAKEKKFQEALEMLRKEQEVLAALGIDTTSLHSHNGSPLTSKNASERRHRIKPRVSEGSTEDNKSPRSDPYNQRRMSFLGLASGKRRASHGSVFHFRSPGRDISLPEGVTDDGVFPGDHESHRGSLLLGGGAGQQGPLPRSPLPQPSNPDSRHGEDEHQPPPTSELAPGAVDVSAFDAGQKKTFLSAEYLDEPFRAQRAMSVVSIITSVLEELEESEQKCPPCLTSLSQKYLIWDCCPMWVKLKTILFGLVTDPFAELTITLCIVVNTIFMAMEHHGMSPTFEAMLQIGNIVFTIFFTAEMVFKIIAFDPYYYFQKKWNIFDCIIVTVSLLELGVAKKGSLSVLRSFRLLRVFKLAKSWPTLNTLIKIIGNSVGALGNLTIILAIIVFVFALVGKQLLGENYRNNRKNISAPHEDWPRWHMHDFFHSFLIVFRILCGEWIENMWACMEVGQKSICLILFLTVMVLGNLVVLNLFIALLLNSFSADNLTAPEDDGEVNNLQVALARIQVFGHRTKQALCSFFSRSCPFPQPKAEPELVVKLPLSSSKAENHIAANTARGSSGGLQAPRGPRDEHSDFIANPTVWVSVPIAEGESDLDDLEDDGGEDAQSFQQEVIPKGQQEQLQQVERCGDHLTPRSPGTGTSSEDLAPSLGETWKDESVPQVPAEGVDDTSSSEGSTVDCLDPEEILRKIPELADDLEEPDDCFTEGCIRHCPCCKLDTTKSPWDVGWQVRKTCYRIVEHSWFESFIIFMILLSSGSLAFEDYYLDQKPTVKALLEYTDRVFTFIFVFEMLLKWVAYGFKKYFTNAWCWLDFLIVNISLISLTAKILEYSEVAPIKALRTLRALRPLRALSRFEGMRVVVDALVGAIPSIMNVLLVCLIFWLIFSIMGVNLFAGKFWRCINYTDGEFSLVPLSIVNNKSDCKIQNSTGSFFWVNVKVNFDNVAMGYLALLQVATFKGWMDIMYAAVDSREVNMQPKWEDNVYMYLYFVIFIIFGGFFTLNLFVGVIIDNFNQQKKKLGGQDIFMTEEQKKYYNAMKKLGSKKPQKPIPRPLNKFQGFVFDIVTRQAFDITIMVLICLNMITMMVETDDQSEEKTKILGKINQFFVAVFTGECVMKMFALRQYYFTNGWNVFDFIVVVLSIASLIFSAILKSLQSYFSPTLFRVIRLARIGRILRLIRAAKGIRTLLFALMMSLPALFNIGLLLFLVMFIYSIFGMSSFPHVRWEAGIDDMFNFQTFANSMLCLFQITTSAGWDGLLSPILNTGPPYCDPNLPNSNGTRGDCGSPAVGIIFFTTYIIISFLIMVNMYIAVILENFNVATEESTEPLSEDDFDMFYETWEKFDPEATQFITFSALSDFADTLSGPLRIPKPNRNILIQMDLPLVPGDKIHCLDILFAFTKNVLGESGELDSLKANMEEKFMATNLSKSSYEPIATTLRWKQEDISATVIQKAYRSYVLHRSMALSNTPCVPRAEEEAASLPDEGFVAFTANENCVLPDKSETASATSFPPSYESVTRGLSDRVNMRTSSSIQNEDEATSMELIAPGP
Experiment: Nav1.8 Qube® Assay (automated 384-well patch-clamp, inhibition of sodium current)
Settings: human NaV1.8 channels stably expressed in HEK 293 cells, room temperature
pIC50: −log10 of the molar value.

{"MOLECULE": "C[C@@H]1C(=O)NCCN1C(=O)NC(c1ccc(F)c(Cl)c1F)[C@H]1CC[C@H](C(F)(F)F)CC1 (single isomer, unassigned) [Example 9A]", "pIC50": 7.33}
{"MOLECULE": "C[C@@H]1C(=O)NCCN1C(=O)NC(c1cccc(Cl)c1F)[C@H]1C[C@H](C(F)(F)F)C1 (single isomer, unassigned) [Example 53B]", "pIC50": 8.04}
{"MOLECULE": "C[C@@H]1C(=O)NCCN1C(=O)NC(c1ccc(F)c(Cl)c1F)C1CC2(C1)CC(F)(F)C2 (single isomer, unassigned) [Example 23]", "pIC50": 8.94}
{"MOLECULE": "C[C@@H]1C(=O)NCCN1C(=O)NC(c1ccc(OC(F)(F)F)c(F)c1)[C@H]1C[C@H](C(F)(F)F)C1 (single isomer, unassigned) [Example 49A]", "pIC50": 8.35}
{"MOLECULE": "C[C@@H]1C(=O)NCCN1C(=O)NC(c1ccc(F)c(Cl)c1F)[C@H]1C[C@H](C(F)F)C1 (single isomer, unassigned) [Example 29B]", "pIC50": 7.18}
{"MOLECULE": "C[C@@H]1C(=O)NCCN1C(=O)NC(c1ccc(F)c(Cl)c1)C1CC(OC(F)F)C1 (single isomer, unassigned) [Example 38D]", "pIC50": 7.75}
{"MOLECULE": "C[C@@H]1C(=O)NCCN1C(=O)NC(c1ccc(F)c(Cl)c1)C12CC(C(F)(F)F)(C1)C2 (single isomer, unassigned) [Example 35A]", "pIC50": 8.22}
{"MOLECULE": "CC(N1CCC(C(NC(=O)N2CCNC(=O)[C@H]2C)c2ccc(F)c(Cl)c2)CC1)C(F)(F)F (single isomer, unassigned) [Example 18D]", "pIC50": 7.08}
{"MOLECULE": "C[C@@H]1C(=O)NCCN1C(=O)NC(C)(c1ccc(F)c(Cl)c1)C1CC(C(F)(F)F)C1 (single isomer, unassigned) [Example 48B]", "pIC50": 6.04}
{"MOLECULE": "C[C@@H]1C(=O)NCCN1C(=O)NC(c1ccc(F)c(Cl)c1)C1CC(C(F)(F)F)C1 (single isomer, unassigned) [Example 43A]", "pIC50": 7.40}
{"MOLECULE": "C[C@@H]1C(=O)NCCN1C(=O)NC(c1ccc(F)c(Cl)c1F)C1CC2(CC2)C1 (single isomer, unassigned) [Example 28A]", "pIC50": 8.58}
{"MOLECULE": "C[C@@H]1C(=O)NCCN1C(=O)NC(c1ccc(F)c(Cl)c1F)C1CC(C(F)(F)F)C1 (single isomer, unassigned) [Example 20D]", "pIC50": 6.94}
